Data provenance: patent US8580556B2

Tested on: tetA promoter (PtetA)-lacZ reporter in E. coli KM3
Assay type: cell-based
Settings: Table 10; chlorsulfuron 2 ppm; 48 hours at 30° C.
Please respond with reported relative β-galactosidase activity, inducer Cs for every item in the list.
Could you respond with only the numeric value?

Lab note: measured relative β-galactosidase activity, inducer Cs of L1-29: library L1 hit, sulfonylurea-responsive TetR(B) variant, SEQ ID NO: 10 (protein, Sulfonylurea responsive repressor L1-29) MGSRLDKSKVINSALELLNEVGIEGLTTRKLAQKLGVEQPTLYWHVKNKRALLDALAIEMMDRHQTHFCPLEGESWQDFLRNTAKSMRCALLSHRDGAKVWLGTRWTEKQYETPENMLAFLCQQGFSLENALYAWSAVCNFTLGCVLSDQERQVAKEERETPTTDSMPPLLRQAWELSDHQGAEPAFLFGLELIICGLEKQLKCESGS was 0.2

For reference, reported relative β-galactosidase activity, inducer Cs for L1-9: library L1 hit, sulfonylurea-responsive TetR(B) variant, parent of L2 and L4 (protein, Sulfonylurea responsive repressor L1-09) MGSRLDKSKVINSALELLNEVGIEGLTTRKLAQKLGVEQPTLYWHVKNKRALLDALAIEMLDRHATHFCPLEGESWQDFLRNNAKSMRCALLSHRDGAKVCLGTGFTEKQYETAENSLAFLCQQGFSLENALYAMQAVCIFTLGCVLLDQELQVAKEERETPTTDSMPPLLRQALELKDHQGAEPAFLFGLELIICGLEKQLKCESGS stands at 2.2

# relative β-galactosidase activity, inducer Cs (molecule: L1-22: library L1 hit, sulfonylurea-responsive TetR(B) variant, SEQ ID NO: 7 (protein, Sulfornylurea responsive repressor L1-22) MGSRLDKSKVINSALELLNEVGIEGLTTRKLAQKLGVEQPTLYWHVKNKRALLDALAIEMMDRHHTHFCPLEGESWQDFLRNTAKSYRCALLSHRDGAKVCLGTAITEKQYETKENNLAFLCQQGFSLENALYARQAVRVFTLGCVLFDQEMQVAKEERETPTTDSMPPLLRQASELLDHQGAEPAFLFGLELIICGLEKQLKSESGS ) is 0.2

Summary for this molecule, L1-44: library L1 hit, sulfonylurea-responsive TetR(B) variant, SEQ ID NO: 13 (protein, Sulfonylurea responsive repressor L1-44) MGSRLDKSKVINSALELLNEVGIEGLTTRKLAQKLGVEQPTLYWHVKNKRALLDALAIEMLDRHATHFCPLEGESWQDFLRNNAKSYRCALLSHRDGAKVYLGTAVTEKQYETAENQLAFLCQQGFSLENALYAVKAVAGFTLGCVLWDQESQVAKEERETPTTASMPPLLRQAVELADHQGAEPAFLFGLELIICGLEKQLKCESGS : relative β-galactosidase activity, inducer Cs is 1.9
